From: patent US20080058263A1

assayedTarget: T1, VEGFR-3-Fc (UniProt P35916 25-328)
T1 construct: domain: first three Ig domains; conditioned supernatant of 293T cells; also called VEGFR-3-Fc fusion protein; not shown: Fc fragment of the pIg vector
T1 sequence (looked up): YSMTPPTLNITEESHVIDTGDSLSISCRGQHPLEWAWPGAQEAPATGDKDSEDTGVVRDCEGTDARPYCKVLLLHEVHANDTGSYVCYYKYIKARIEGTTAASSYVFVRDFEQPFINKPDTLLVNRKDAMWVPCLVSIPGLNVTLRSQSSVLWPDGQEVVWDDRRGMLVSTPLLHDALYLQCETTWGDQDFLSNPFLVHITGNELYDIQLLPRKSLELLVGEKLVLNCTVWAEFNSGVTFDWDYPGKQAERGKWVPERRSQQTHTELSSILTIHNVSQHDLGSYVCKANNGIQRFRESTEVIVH
protocolSummary: receptor-Fc IP
valueType: binding result

Entry under review: 43-9 (ligand) AHYNTEILKFMDVYQRSYCHPREVCIDVGKEYPDEIEYIFKPPCVSVYRCGGCCNDEGLECVPTEESNITMQIMRITVPLSQGPKPVTISFLQHNKCECRPKKD . Reported binding result?
no binding

# lookup: binding result of 74-1 (ligand) GQNHHEVVKSIDNEWRKTQCMPREVCIDVGKEFGVATNTFFKPSCVPLMRCGGCCNDEGLECVPTEESNITMQIMRIKPHQGQHIGEMSFLQHNKCECRPKKD
no binding
